Listing: Ki of selected compounds
# Experimental system: EcoCAγ (Escherichia coli)
# Construct: gene yrdA; recombinant full-length WP_009008373.1, N-terminal His-tag, 72 extra N-terminal residues versus YrdA
# Sequence (P0A9W9 whole entry): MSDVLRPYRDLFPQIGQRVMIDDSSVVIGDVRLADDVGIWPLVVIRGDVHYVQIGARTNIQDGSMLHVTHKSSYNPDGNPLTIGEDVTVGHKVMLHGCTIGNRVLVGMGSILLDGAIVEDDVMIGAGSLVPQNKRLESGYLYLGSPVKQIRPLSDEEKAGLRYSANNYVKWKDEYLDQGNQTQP
# Test: biochemical
Endpoint: Ki (nM)

* NS(=O)(=O)c1ccc(C(=O)O)cc1 [compound 18] | 2060
* NS(=O)(=O)c1ccc(CCO)cc1 [compound 17] | 1970
* Nc1ccc(S(N)(=O)=O)cc1Br [compound 9] | 718
* Nc1ccc(S(=O)(=O)NCCc2ccc(S(N)(=O)=O)cc2)cc1 [compound 24] | 4260
* Nc1cc(C(F)(F)F)c(S(N)(=O)=O)cc1S(N)(=O)=O [compound 11] | 1780
* Cc1ccc(S(N)(=O)=O)cc1 [compound 4] | 221
* Nc1nnc(S(N)(=O)=O)s1 [compound 13] | 197
* NS(=O)(=O)c1cc(Cl)cc(Cl)c1O [compound 10] | 2580
* NCCc1ccc(S(N)(=O)=O)cc1 [compound 6] | 622
* Nc1nccc(Nc2ccc(S(N)(=O)=O)cc2)n1 [compound 19] | 1890
* NS(=O)(=O)c1ccc(CO)cc1 [compound 16] | 4240
* Nc1ccc(S(=O)(=O)Nc2ccc(S(N)(=O)=O)cc2)cc1 [compound 22] | 3500
* Nc1ccc(S(=O)(=O)NCc2ccc(S(N)(=O)=O)cc2)cc1 [compound 23] | 4040
* Nc1ccc(S(=O)(=O)Nc2nnc(S(N)(=O)=O)s2)cc1 [compound 20] | 883
* Cn1nc(S(N)(=O)=O)sc1=N [compound 14] | 712
* NS(=O)(=O)c1ccc(O)cc1 [compound 15] | 1010
* Nc1ccc(S(N)(=O)=O)cc1Cl [compound 8] | 671
* NS(=O)(=O)c1cccc(S(N)(=O)=O)c1 [compound 3] | 246
* Nc1cc(Cl)c(S(N)(=O)=O)cc1S(N)(=O)=O [compound 12] | 1950
* Nc1ccc(S(N)(=O)=O)cc1F [compound 7] | 605

Data provenance is paper PMC7470111.
